# TARGET DESC: HLA-A*02:01 (Homo sapiens, UniProt P04439, D140Y/D185E/D98H/E176V/E277Q/G131W/G231S/I119V/I121R/I166T/I218V/L300P/L318F/N151K/N90K/P208A/P217A/Q86G/Q94H/R138H/R169H/T345S)
# PROTOCOL: MHC binding assay (UV-ligand exchange, beta2m ELISA, peptide exchange yield)
# STUDY CONDITIONS: binding of HLA-class I restricted peptides to HLA-A*02:01, ranged by peptide exchange yield (UV-ligand exchange, β2m ELISA)
# Text: Candidate peptides for T cell based therapies according to the present invention were further tested for their MHC binding capacity (affinity). The individual peptide-MHC complexes were produced by UV-ligand exchange, where a UV-sensitive peptide is cleaved upon UV-irradiation, and exchanged with the peptide of interest as analyzed. Only peptide candidates that can effectively bind and stabilize the peptide-receptive MHC molecules prevent dissociation of the MHC complexes. […]
OBSERVED PROPERTY: Peptide exchange

{"SUBSTANCE": "426 (RLADKSVLV; listed as Homo sapiens) [compound 426]", "MEAS VALUE": "″+++″ (≥50% = +++)"}
{"SUBSTANCE": "337 (HLLSELEAAPYL; listed as Homo sapiens) [compound 337]", "MEAS VALUE": "″++++″ (≥75% = ++++)"}
{"SUBSTANCE": "447 (QLVPALAKV; listed as Homo sapiens) [compound 447]", "MEAS VALUE": "″++″ (≥20% = ++)"}
{"SUBSTANCE": "273 (NLFQSVREV; listed as Homo sapiens) [compound 273]", "MEAS VALUE": "″++″ (≥20% = ++)"}
{"SUBSTANCE": "528 (SVAEGRALMSV; listed as Homo sapiens) [compound 528]", "MEAS VALUE": "″+++″ (≥50% = +++)"}
{"SUBSTANCE": "67 (TLLAEALVTV; listed as Homo sapiens) [compound 67]", "MEAS VALUE": "″+++″ (≥50% = +++)"}
{"SUBSTANCE": "428 (KLGHTDILVGV; listed as Homo sapiens) [compound 428]", "MEAS VALUE": "″++″ (≥20% = ++)"}
{"SUBSTANCE": "494 (ALQPEPIKV; listed as Homo sapiens) [compound 494]", "MEAS VALUE": "″++″ (≥20% = ++)"}

INPUT: Record request: Peptide exchange value, item 216 (NLWEDPYYL; listed as Homo sapiens) [compound 216]
OUTPUT: ″+++″ (≥50% = +++)

INPUT: 6 (VLVSDGVHSV; listed as Homo sapiens) [compound 6] , same question.
OUTPUT: ″+++″ (≥50% = +++)

INPUT: Entry to check: 101 (ILVGGGALATV; listed as Homo sapiens) [compound 101]
OUTPUT: ″+++″ (≥50% = +++)

====

# TARGET DESC: HLA-A*02:01 (Homo sapiens, UniProt P04439, D140Y/D185E/D98H/E176V/E277Q/G131W/G231S/I119V/I121R/I166T/I218V/L300P/L318F/N151K/N90K/P208A/P217A/Q86G/Q94H/R138H/R169H/T345S)
# PROTOCOL: MHC binding assay (UV-ligand exchange, beta2m ELISA, peptide exchange yield)
# STUDY CONDITIONS: binding of HLA-class I restricted peptides to HLA-A*02:01, ranged by peptide exchange yield (UV-ligand exchange, β2m ELISA)
OBSERVED PROPERTY: Peptide exchange

Answered cases to consult:
{"SUBSTANCE": "75 (GLLEVMVNL; listed as Homo sapiens) [compound 75]", "Peptide exchange": "″+++″ (≥50% = +++)"}
{"SUBSTANCE": "303 (AILPQLFMV; listed as Homo sapiens) [compound 303]", "Peptide exchange": "″++++″ (≥75% = ++++)"}
{"SUBSTANCE": "180 (FQIDPHSGLVTV; listed as Homo sapiens) [compound 180]", "Peptide exchange": "″++″ (≥20% = ++)"}
{"SUBSTANCE": "382 (ALQNYIKEA; listed as Homo sapiens) [compound 382]", "Peptide exchange": "″++″ (≥20% = ++)"}
{"SUBSTANCE": "611 (YLLDDGTLVV; listed as Homo sapiens) [compound 611]", "Peptide exchange": "″++++″ (≥75% = ++++)"}
{"SUBSTANCE": "209 (KLIESKHEV; listed as Homo sapiens) [compound 209]", "Peptide exchange": "″++″ (≥20% = ++)"}

INPUT: Request the reported Peptide exchange associated with 518 (KLNAEVACV; listed as Homo sapiens) [compound 518]
OUTPUT: ″+++″ (≥50% = +++)

INPUT: Now consider 590 (SLIEKLWQT; listed as Homo sapiens) [compound 590] .
OUTPUT: ″++″ (≥20% = ++)

INPUT: Next substance up: 564 (TVTNAVVTV; listed as Homo sapiens) [compound 564]
OUTPUT: ″+++″ (≥50% = +++)

INPUT: Repeat with 446 (QLIPALAKV; listed as Homo sapiens) [compound 446]
OUTPUT: ″+++″ (≥50% = +++)

INPUT: Same thing, different substance: 363 (KVLDVSDLESV; listed as Homo sapiens) [compound 363]
OUTPUT: ″++″ (≥20% = ++)

INPUT: Lookup 514 (ILVDWLVQV; listed as Homo sapiens) [compound 514]
OUTPUT: ″+++″ (≥50% = +++)

INPUT: Same question for 472 (KLLEVSDDPQV; listed as Homo sapiens) [compound 472] please.
OUTPUT: ″+++″ (≥50% = +++)
